# targetOfAssay: L-Lactate Oxidase (Enterococcus casseliflavus, UniProt C9AC47)
# Sequence (C9AC47 1-367): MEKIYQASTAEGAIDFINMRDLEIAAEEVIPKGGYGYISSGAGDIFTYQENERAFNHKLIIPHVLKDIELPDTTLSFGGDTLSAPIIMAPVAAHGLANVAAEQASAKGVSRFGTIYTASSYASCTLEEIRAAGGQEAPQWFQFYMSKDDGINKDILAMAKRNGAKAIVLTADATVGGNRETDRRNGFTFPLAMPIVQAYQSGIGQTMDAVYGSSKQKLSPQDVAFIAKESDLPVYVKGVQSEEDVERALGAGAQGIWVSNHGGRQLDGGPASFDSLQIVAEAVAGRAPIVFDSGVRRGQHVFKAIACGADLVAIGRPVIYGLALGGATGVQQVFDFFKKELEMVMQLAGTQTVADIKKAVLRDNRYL
# assayOverview: biochemical
attributeMeasured: inhibition of lactate oxidase activity (in words)

>  <compound>
COCC(=O)O [Methoxyacetic Acid]

>  <targetOfAssay>
L-Lactate Oxidase (Enterococcus casseliflavus, UniProt C9AC47)

>  <result>
little or no inhibition

$$$$
>  <compound>
O=C(O)CO [Glycolic Acid]

>  <targetOfAssay>
L-Lactate Oxidase (Enterococcus casseliflavus, UniProt C9AC47)

>  <result>
greatly inhibit

$$$$
>  <compound>
O=C(O)CCC(=O)C(=O)O [α-Ketoglutaric Acid]

>  <targetOfAssay>
L-Lactate Oxidase (Enterococcus casseliflavus, UniProt C9AC47)

>  <result>
little or no inhibition

$$$$
>  <compound>
CC(O)CC(=O)O (stereo not drawn) [β-Hydroxybutyric Acid]

>  <targetOfAssay>
L-Lactate Oxidase (Enterococcus casseliflavus, UniProt C9AC47)

>  <result>
little or no inhibition

$$$$
>  <compound>
O=C(O)CC(O)C(=O)O (stereo not drawn) [Malic Acid]

>  <targetOfAssay>
L-Lactate Oxidase (Enterococcus casseliflavus, UniProt C9AC47)

>  <result>
little or no inhibition

$$$$

Known value: L-Lactate Oxidase (Enterococcus casseliflavus, UniProt C9AC47) inhibition of lactate oxidase activity (in words) of the compound O=C(O)C(=O)O [Oxalic Acid] equals greatly inhibit

Known value: L-Lactate Oxidase (Enterococcus casseliflavus, UniProt C9AC47) inhibition of lactate oxidase activity (in words) of the compound CC(O)C(N)=O (stereo not drawn) [Lactamide] equals little or no inhibition

Known value: L-Lactate Oxidase (Enterococcus casseliflavus, UniProt C9AC47) inhibition of lactate oxidase activity (in words) of the compound NCC(=O)O [Glycine] equals little or no inhibition
